Consider the following compounds and their measured pKi readings.
Tested On: human full-length autophosphorylated recombinant HPK1 (Homo sapiens (Human), UniProt Q92918)
Sequence (Q92918 other isoform, or with tags, fused parts or gaps): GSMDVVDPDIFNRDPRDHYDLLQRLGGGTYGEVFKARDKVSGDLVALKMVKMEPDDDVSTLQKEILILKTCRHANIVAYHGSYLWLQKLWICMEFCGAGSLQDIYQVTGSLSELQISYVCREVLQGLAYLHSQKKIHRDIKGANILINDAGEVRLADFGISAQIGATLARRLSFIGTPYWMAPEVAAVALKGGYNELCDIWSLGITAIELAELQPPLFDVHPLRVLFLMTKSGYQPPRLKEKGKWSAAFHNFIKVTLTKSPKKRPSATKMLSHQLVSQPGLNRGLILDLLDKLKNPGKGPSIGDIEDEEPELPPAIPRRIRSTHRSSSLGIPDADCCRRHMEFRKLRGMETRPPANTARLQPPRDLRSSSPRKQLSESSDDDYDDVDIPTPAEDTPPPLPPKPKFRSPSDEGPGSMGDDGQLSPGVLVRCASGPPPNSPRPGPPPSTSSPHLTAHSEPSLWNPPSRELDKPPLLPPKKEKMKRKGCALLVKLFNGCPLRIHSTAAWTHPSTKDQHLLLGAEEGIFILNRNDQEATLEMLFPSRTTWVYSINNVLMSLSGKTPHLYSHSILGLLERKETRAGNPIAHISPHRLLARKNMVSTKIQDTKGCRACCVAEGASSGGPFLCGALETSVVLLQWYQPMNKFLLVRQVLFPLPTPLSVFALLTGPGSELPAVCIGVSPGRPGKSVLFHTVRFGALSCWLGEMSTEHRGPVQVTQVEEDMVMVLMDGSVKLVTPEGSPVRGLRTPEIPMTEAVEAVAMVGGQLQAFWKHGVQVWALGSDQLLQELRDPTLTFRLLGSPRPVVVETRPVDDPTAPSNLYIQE
Assay Comment: HPK1 biochemical enzyme assay (chelation-enhanced fluorescence, CHEF)
Condition Parameters: 0.5 nM HPK1, 45 μM ATP, Morrison fit
Method: HPK1 Biochemical Enzyme Assay HPK1 enzyme inhibition was measured by using the fluorescence-based chelation-enhanced fluorescence (CHEF) method (1), and by using a proprietary fluorescent peptide substrate, in which a cysteine residue is alkylated with a sulfonamido-oxine-based derivative to afford an amino acid termed C-Sox (CSx). […]
Reminder that pKi means the negative base-10 logarithm of the concentration expressed in mol/L.

QUERY: # return recorded pKi for entry C[C@H]1CCc2nnc(-c3cccc(N4Cc5c(cc(N(C)C)nc5C(C)(C)N)C4=O)n3)n21 (single isomer, unassigned)
RESULT: 10.10
